Catalogue of OD450 readings, one per entry.
# assay system: T1, EGFR Fc (human, UniProt P00533 25-645)
# T1 construct: also called EGFR-hFc; recombinant human EGFR-Fc
# measurement description: ELISA, EGFR Fc coated, VHH at 10 nM

binder	OD450
pgEG-SX20 (VHH, not shown: small tags and cut ends) VHH: QVQLVESGGGLVQAGGSLRLSCAGARSAFSIKPMTWYRQAPGKERELVAYFNSGGSTNYADSVKGRFTISRDNAKNTMYLQMNNLKPEDTAVYYCNAIPPLGSWGQGTQVTVSS	2.6
pgEG-SX6 (VHH, not shown: small tags and cut ends) VHH: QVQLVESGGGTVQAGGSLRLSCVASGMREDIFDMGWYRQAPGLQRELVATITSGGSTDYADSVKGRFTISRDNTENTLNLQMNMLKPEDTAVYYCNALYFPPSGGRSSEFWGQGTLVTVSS	1
